# method: plasmodial surface anion channel blockers, osmotic lysis – cell-based, P. falciparum Indochina, OD700, 18 h, primary screen (AID 1157)
# assay conditions: P. falciparum Indochina infected erythrocytes, osmotic lysis OD700, 18 h; higher = more signal, called active from +8 up or from −8 down
quantity name: z-score
# output: bare number, no unit

Solved cases (3 shown):
# structure smiles string, z-score
rows = [
    ("[N-]=[N+]=Nc1ccccc1C[C@]1(C(=O)N2CCOCC2)N=C(c2ccc(OCCCO)cc2)O[C@H]1c1ccccc1N=[N+]=[N-]", 6.73),
    ("COC(=O)c1cccc([C@H]2OC(=CC(=O)OC(C)C)C[C@@H](c3cccc(C(=O)OC)c3)O2)c1", 0.683),
    ("COc1ccc([Si](C)(C)[C@@H]2[C@@H](CC(=O)N(CCO)Cc3ccccc3)O[C@]3(C(=O)N(Cc4ccc(I)cc4)c4ccccc43)[C@H]2C)cc1", 0.794),
]

**Query** Report z-score for "C=C(CCCC)/C(=C/C[C@H](OC(=O)c1ccncc1)c1ccccc1OCCO)c1cc(C(=O)OC)ccc1OC" please.
**Result** 1.44

**Query** Report z-score for "NC(=O)NCC#Cc1ccc2c(c1)[C@]1(C(=O)N2)[C@H](c2ccc(OCCO)cc2)N2[C@H](c3ccccc3)[C@H](c3ccccc3)OC(=O)[C@H]2[C@@H]1C(=O)NC[C@H](O)c1ccccc1" please.
**Result** -1.81

**Query** Report z-score for "COC(=O)[C@@]1(Cc2ccc(OC)cc2)[C@H]2c3cc(C(=O)N4CCCC4)n(Cc4ccc(Cl)c(C(F)(F)F)c4)c3C[C@H]2CN1C(=O)c1ccccc1" please.
**Result** -1.17

**Query** Report z-score for "[N-]=[N+]=Nc1ccccc1[C@@H]1OC(c2ccc(OCCCO)cc2)=N[C@]1(Cc1ccccc1)C(=O)NCCN1CCOCC1" please.
**Result** 1.92

**Query** Report z-score for "C=CC[C@@]1(C(=O)N(C)C)N=C(c2ccc(OCCCO)cc2)O[C@@H]1c1ccccc1CN=[N+]=[N-]" please.
**Result** 1.26

---

# method: probe aLAP1 signal on lysate-treated microarray – cell lysate, small-molecule microarray, COS7 lysate, primary screen (AID 1124);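 note: lysate comes from COS7 cells expressing LAP1 and is applied at 0.3 µg/mL; score merges spot fluorescence near 667 nm with signal-to-noise over triplicate slides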
# assay conditions: probe aLAP1, fluorescence, higher = more signal
Give 1 when the value for composite z-score is at least 0.6. Give -1 when it is less.

These solved cases illustrate the format of a correct answer.
# compound, assigned category
data = [
    ("[N-]=[N+]=NCc1ccccc1[C@@H]1OC(c2ccc(OCCCO)cc2)=N[C@]1(Cc1ccccc1N=[N+]=[N-])C(=O)NCC(O)CO (stereo partly drawn)", 1),
    ("C[C@@H]1ON(c2ccc(I)cc2)[C@H](c2cccc(NC(=O)OCC3c4ccccc4-c4ccccc43)c2)[C@H]1C(=O)N1C(=O)OC[C@H]1Cc1ccccc1", -1),
    ("COCC(=C=CC[C@H](O)c1ccccc1OCCO)C[C@H](O)COCc1ccccc1", 1),
]

**Query** Hi team, for "CCOC(=O)C1=C[C@@H](C(C)(C)C)N(S(=O)(=O)c2ccc(C)cc2)[C@H]1c1ccc(C#N)cc1" , is the recorded composite z-score at or above 0.6?
**Result** 1

**Query** Hi team, for C=CCC(OC(C)=O)[C@@H]1[C@@H](N(Cc2cc3ccccc3o2)C(=O)Cc2ccc(OC)cc2)c2cc(OCCCO)ccc2N1C(=O)c1ccc2ccccc2n1 (stereo partly drawn) , is the recorded composite z-score at or above 0.6?
**Result** -1

**Query** Hi team, for "C=CCNC(=O)[C@@H]1[C@H]2C(=O)O[C@H](c3ccccc3)[C@H](c3ccccc3)N2[C@H](c2ccc(OCCO)cc2)[C@@]12C(=O)Nc1ccc(C#CC3(O)CCCCCC3)cc12" , is the recorded composite z-score at or above 0.6?
**Result** 1

**Query** Hi team, for CC(C)(C)N1CC=CC23O[C@@H]4/C=C\CCCOC(=O)C4[C@H]2C(=O)N(CCCCCO)[C@@H]3C1=O (stereo partly drawn) , is the recorded composite z-score at or above 0.6?
**Result** -1

**Query** Hi team, for CC(C)OC(=O)CC(=O)CC(O)c1cccc([N+](=O)[O-])c1 (stereo not drawn) , is the recorded composite z-score at or above 0.6?
**Result** -1

**Query** Hi team, for "Cc1ccc(F)cc1S(=O)(=O)N[C@H]1CCN(Cc2ccc(OC(C)C)cc2)C1" , is the recorded composite z-score at or above 0.6?
**Result** 1

**Query** Hi team, for "CN(C)CCCNC(=O)[C@@H]1c2ccccc2C(=O)N(Cc2ccccc2C(F)(F)F)[C@H]1c1ccc(CO)cc1" , is the recorded composite z-score at or above 0.6?
**Result** -1

**Query** Hi team, for "CCOC(=O)C[C@H]1[C@H](OC(=O)Cc2ccc3c(c2)OCO3)[C@@H](NC(=O)c2ccc3ccccc3n2)c2cc(OCCCO)ccc2N1C(=O)Cc1ccc(OC)cc1" , is the recorded composite z-score at or above 0.6?
**Result** -1

**Query** Hi team, for "COC(=O)[C@@]1(Cc2ccccc2)N=C(c2ccc(OCCCO)cc2)O[C@H]1c1ccccc1CN=[N+]=[N-]" , is the recorded composite z-score at or above 0.6?
**Result** -1

**Query** Hi team, for CC1CC/C=C\[C@H]2OC34C=CCN(CCN5CCOCC5)C(=O)[C@H]3N(CCCO)C(=O)[C@@H]4C2C(=O)O1 (stereo partly drawn) , is the recorded composite z-score at or above 0.6?
**Result** -1

**Query** Hi team, for O=C1C2C=CC(C(O)c3c(F)cccc3Cl)N(Nc3ccc([N+](=O)[O-])cc3)C2C(=O)N1c1ccccc1 (stereo not drawn) , is the recorded composite z-score at or above 0.6?
**Result** 1

---

Reported composite z-score is given for each of the following molecules.
# method: probe aEGFR binding to arrayed compounds – biochemical, biotinylated probe, 635/667 nm fluorescence, primary screen (AID 1097);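 note: probe is a biotinylated anti-EGFR antibody binding compounds printed on slides; score combines fluorescence near 667 nm and signal to noise of each spot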
# assay conditions: small-molecule microarray, higher = more signal
# output: bare number, no unit

Solved cases (2 shown):
# molecule, quantitative result
data = [
    ("CC(C)C[C@@H]1NC(=O)[C@@H]2C[C@H](C(=O)NCCCCCCNC(=O)CS)[C@H](c3cccc(OCCO)c3)N2C1=O", 0.0618),
    ("O=C1O[C@@H](c2ccccc2)[C@@H](c2ccccc2)N2[C@@H](c3ccc(OCCO)cc3)[C@]3(C(=O)Nc4ccc(C#CCCO)cc43)[C@@H](C(=O)O)[C@H]12", 0.853),
]

**Query** Report composite z-score for O=C(NCC(O)CO)[C@@]1(CCS(=O)(=O)c2ccccc2)N=C(c2ccc(OCCCO)cc2)O[C@H]1c1ccccc1 (stereo partly drawn) please.
**Result** 0.144

---

# study target: Torsin-1A-interacting protein 2 (Homo sapiens) (UniProt Q8NFQ8)
# Sequence (Q8NFQ8 whole entry, looked up): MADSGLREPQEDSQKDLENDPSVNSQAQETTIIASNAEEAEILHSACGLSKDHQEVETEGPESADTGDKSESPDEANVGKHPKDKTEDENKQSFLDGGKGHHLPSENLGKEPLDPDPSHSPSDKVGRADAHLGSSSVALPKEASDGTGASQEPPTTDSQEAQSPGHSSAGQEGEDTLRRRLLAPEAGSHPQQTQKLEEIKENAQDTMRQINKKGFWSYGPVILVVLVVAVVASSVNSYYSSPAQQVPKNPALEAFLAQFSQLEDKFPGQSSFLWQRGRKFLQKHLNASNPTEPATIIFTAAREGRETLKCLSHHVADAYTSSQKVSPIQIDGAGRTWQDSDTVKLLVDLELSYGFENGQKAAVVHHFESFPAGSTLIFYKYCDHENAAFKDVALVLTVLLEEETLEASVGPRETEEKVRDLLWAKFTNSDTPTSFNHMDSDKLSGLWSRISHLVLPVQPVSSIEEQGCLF
# method: small molecules binding lysate-expressed LULL1 – cell lysate, human LULL1 lysate, 635/667 nm fluorescence, primary screen (AID 1092);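 note: probe is lysate of COS7 cells overexpressing human LULL1; score merges per-feature 667 nm fluorescence with signal-to-noise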
# assay conditions: small-molecule microarray, hLULL1 lysate binding, 635 nm fluorescence; higher = more signal
The class of a record is decided solely by its measured composite z-score; consult bucket 1 = under 1, bucket 2 = from 1 up to 2, bucket 3 = 2 and over

These solved cases illustrate the format of a correct answer.
# molecule, assigned category
rows = [
    ("C=CCC(OC(C)=O)[C@@H]1[C@@H](N(Cc2cccc3ccccc23)C(=O)Cc2ccc(OC)cc2)c2cc(OCCCO)ccc2N1C(=O)Cc1ccc2ccccc2c1 (stereo partly specified)", "bucket 1"),
    ("CC(C)N1C(=O)c2ccccc2[C@@H](C(=O)NCC(F)(F)F)[C@@H]1c1ccc(CO)cc1", "bucket 1"),
    ("CCOC(=O)c1cn(C[C@H](Cc2ccccc2)NC(=O)N[C@H](CO)CCc2oc(C(C)=O)c(C(=O)OC)c2C(=O)OC)nn1", "bucket 2"),
]

**Query** Bin? "O=C(O)[C@H](Cc1ccccc1)n1cc(C2(O)CCCCC2)nn1"
**Result** bucket 2

**Query** Bin? "C[C@@H]1ON(c2ccc(I)cc2)[C@H](c2cccc(NC(=O)OCC3c4ccccc4-c4ccccc43)c2)[C@H]1C(=O)N1C(=O)OC[C@H]1Cc1ccccc1"
**Result** bucket 1

---

Reported composite z-score is given for each of the following molecules.
# method: compounds binding Alexa647 anti-His antibody – biochemical, small-molecule microarray, 635 nm fluorescence, artefact control for SMM control protein annotation, primary screen (AID 1128);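 note: score merges feature fluorescence with signal-to-noise for each printed compound spot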
# assay conditions: higher = more signal
# output: bare number, no unit

# molecule, quantitative result
measured = [
    ("COc1ccc(C(=O)Nc2cccc(CN3C(=O)[C@]4(O[C@H](CC(=O)N5Cc6ccccc6C[C@H]5CO)[C@@H]([Si](C)(C)c5ccc(OC)cc5)[C@@H]4C)c4ccccc43)c2)cc1", 1.17),
    ("COCCCN1C(=O)[C@@]2(c3ccc([N+](=O)[O-])cc3)CC(=O)N(CC34CC5CC(CC(C5)C3)C4)[C@@H]2c2ccc(CO)cc21", -0.0041),
    ("COc1ccc([Si](C)(C)[C@H]2[C@H](CCO)O[C@@]3(C(=O)N(Cc4cccc(N5C(=O)c6ccccc6Oc6ccccc65)c4)c4ccccc43)[C@@H]2C)cc1", 0.551),
    ("COC(=O)[C@@]1(Cc2ccccc2)N=C(c2ccc(OCCCO)cc2)O[C@H]1c1ccccc1CN=[N+]=[N-]", 1.91),
    ("NC(=O)NCC#Cc1ccc2c(c1)[C@]1(C(=O)N2)[C@H](c2ccc(OCCO)cc2)N2[C@H](c3ccccc3)[C@H](c3ccccc3)OC(=O)[C@H]2[C@@H]1C(=O)O", 1.21),
    ("CCOC(=O)C[C@H]1[C@H](OC(=O)Cc2ccc3c(c2)OCO3)[C@@H](NC(=O)Cc2ccc(OC)cc2)c2cc(OCCCO)ccc2N1C(=O)Cc1ccc(OC)cc1", 0.247),
    ("C[N+](C)(C)CCCCNC(=O)[C@H]1C[C@H]2C(=O)N[C@@H](Cc3ccccc3)C(=O)N2[C@H]1c1cccc(OCCO)c1", 2.93),
    ("COC(=O)[C@@]1(Cc2ccc(OC)cc2)[C@H]2c3cc(C(=O)N4CCCC4)n(Cc4ccc(Cl)c(C(F)(F)F)c4)c3C[C@H]2CN1C(=O)c1ccccc1", 1.27),
]

**Query** Report composite z-score for "COCCOC(=O)N1C(=O)[C@@]2(c3cc(C#CCCO)ccc31)[C@H](c1ccccc1OCCO)N1[C@H](c3ccccc3)[C@H](c3ccccc3)OC(=O)[C@H]1[C@@H]2C(N)=O" please.
**Result** 1.75

**Query** Report composite z-score for CC=CC(O)C1C=CC2C(=O)NC(=O)C2N1Nc1ccc(Cl)cc1Cl (stereo not drawn) please.
**Result** 1.78

**Query** Report composite z-score for "CN(C)CCCCNC(=O)[C@H]1C[C@H]2C(=O)N3CCC[C@H]3C(=O)N2[C@H]1c1cccc(OCCO)c1" please.
**Result** 1.96

**Query** Report composite z-score for CC(C)(C)N1CC=CC23O[C@@H]4C=CCOC(=O)[C@@H]4[C@H]2C(=O)N(CCO)[C@@H]3C1=O (stereo partly drawn) please.
**Result** 1.6

**Query** Report composite z-score for "C#CCN1[C@@H](Cc2ccccc2)C(=O)O[C@H](Cc2ccccc2)[C@@H]1/C=C/C1CC1" please.
**Result** 1.3
